# measured on: Bcl-2 protein (Homo sapiens (Human), UniProt P10415)
# Sequence (P10415 whole entry): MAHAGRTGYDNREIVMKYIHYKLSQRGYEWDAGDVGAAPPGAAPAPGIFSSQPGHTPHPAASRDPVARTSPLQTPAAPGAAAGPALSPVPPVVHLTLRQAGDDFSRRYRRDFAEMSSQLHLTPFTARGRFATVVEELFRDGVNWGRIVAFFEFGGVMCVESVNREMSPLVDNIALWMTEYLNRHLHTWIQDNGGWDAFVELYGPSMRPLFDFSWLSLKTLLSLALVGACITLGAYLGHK
Assignment: determine reported Ki for the given molecules.

Use the examples below as a reference point.
Give its Ki value. Item: CN(C)CC(=O)N1CCOC(CNc2ccc(S(=O)(=O)NC(=O)c3ccc(N4CCN(CC5=C(c6ccc(Cl)cc6)CC(C)(C)CC5)CC4)cc3Oc3cnc4[nH]ccc4c3)cc2[N+](=O)[O-])C1 (stereo not shown)
< 0.01 nM

# iterate: `O=C(NS(=O)(=O)c1ccc(OCC2(F)CCOCC2)c(Cl)c1)c1ccc(N2CCN(CC3=C(c4ccc(Cl)cc4)CCC4(CCN(C5COC5)CC4)C3)CC2)cc1Oc1cnc2[nH]ccc2c1`
< 0.01 nM

For `CC1(C)CCC(CN2CCN(c3ccc(C(=O)NS(=O)(=O)c4ccc(OC[C@H]5COCCO5)c([N+](=O)[O-])c4)c(Oc4cnc5[nH]ccc5c4)c3)CC2)=C(c2ccc(Cl)cc2)C1` then?
< 0.01 nM

`CC1(C)CCC(CN2CCN(c3ccc(C(=O)NS(=O)(=O)c4ccc(NCC5CCN(C6CC6)CC5)c([N+](=O)[O-])c4)c(Oc4cnc5[nH]ccc5c4)c3)CC2)=C(c2ccc(Cl)cc2)C1` ?
< 0.01 nM

Also check COCCN1CCOC(CNc2ccc(S(=O)(=O)NC(=O)c3ccc(N4CCN(CC5=C(c6ccc(Cl)cc6)CC(C)(C)CC5)CC4)cc3Oc3cnc4[nH]ccc4c3)cc2[N+](=O)[O-])C1 (stereo not shown)
< 0.01 nM

Could you do the same for `CC1(C)CCC(CN2CCN(c3ccc(C(=O)NS(=O)(=O)c4ccc(NC[C@@H]5CCN(C6CCOCC6)C5)c([N+](=O)[O-])c4)c(Oc4cnc5[nH]ccc5c4)c3)CC2)=C(c2ccc(Cl)cc2)C1` , please?
< 0.01 nM

Provide each entry's Ki from the list below.
1. CC1(C)CCC(CN2CCN(c3ccc(C(=O)NS(=O)(=O)c4ccc(NCCCN(C5CCC5)C5CC5)c([N+](=O)[O-])c4)c(Oc4cnc5[nH]ccc5c4)c3)CC2)=C(c2ccc(Cl)cc2)C1
2. CC1(C)CCC(CN2CCN(c3ccc(C(=O)NS(=O)(=O)c4ccc(NCC5CN(CC(F)F)CCO5)c([N+](=O)[O-])c4)c(Oc4cnc5[nH]ccc5c4)c3)CC2)=C(c2ccc(Cl)cc2)C1 (stereo not shown)
3. CC1(C)CC(c2ccc(Cl)cc2)=C(CN2CCN(c3ccc(C(=O)NS(=O)(=O)c4ccc(OCC5COCCO5)c([N+](=O)[O-])c4)c(Oc4cnc5[nH]ccc5c4)c3)CC2)CO1 (stereo not shown)
4. COCCOCCS(=O)(=O)c1ccc(S(=O)(=O)NC(=O)c2ccc(N3CCN(CC4=C(c5ccc(Cl)cc5)CC(C)(C)CC4)CC3)cc2Oc2cnc3[nH]ccc3c2)cc1Cl

1: < 0.01 nM; 2: < 0.01 nM; 3: < 0.01 nM; 4: < 0.01 nM

---

# assay summary: log D at pH 7.4 by an HPLC method
# Assay type: physicochemical
For each record, write down the corresponding chromatographic logD.
One number for each entry.

Batch of 2 compounds: report chromatographic logD for each.
1. CC1(C)CCC(CN2CCN(c3ccc(C(=O)NS(=O)(=O)c4ccc(OCC5(F)CCOCC5)c([N+](=O)[O-])c4)c(Oc4cnc5[nH]ccc5c4)c3)CC2)=C(c2ccc(Cl)cc2)C1
2. CC1(C)CCC(CN2CCN(c3ccc(C(=O)NS(=O)(=O)c4ccc(OCC5COCCO5)c([N+](=O)[O-])c4)c(Oc4cnc5[nH]ccc5c4)c3)CC2)=C(c2ccc(Cl)cc2)C1 (stereo not drawn)

[5.27, 5.17]

For the compound shown here, `CC1(C)CCC(CN2CCN(c3ccc(C(=O)NS(=O)(=O)c4ccc(N[C@H]5CC[C@H](N6CCOCC6)CC5)c([N+](=O)[O-])c4)c(Oc4cnc5[nH]ccc5c4)c3)CC2)=C(c2ccc(Cl)cc2)C1` , give the reported chromatographic logD.
5.71

---

// each record: one item and its Ki for UniProt:P10415

Would you please look over these solved cases?
Which measured Ki belongs to `CC1(C)CC(c2ccc(Cl)cc2)=C(CN2CCN(c3ccc(C(=O)NS(=O)(=O)c4cnc(OCC5CCOCC5)c(C#N)c4)c(Oc4cnc5[nH]ccc5c4)c3)CC2)CO1` , tested on UniProt:P10415?
< 0.01 nM

Same lookup for `CC1(C)CCC(CN2CCN(c3ccc(C(=O)NS(=O)(=O)c4ccc(NC[C@H]5CC[C@H](O)CC5)c([N+](=O)[O-])c4)c(Oc4cnc5[nH]ccc5c4)c3)CC2)=C(c2ccc(Cl)cc2)C1` , please.
< 0.01 nM

Continue with the compound presented below.
Give UniProt:P10415 Ki for `CC1(C)CCC(CN2CCN(c3ccc(C(=O)NS(=O)(=O)c4ccc(NCCCN5CCOCC5)c([N+](=O)[O-])c4)c(Oc4cnc5[nH]ccc5c4)c3)CC2)=C(c2ccc(Cl)cc2)C1`
< 0.01 nM

---

# measured on: Bcl-2 protein (Homo sapiens (Human))
# assay summary: Bcl-2 binding TR-FRET (Time-Resolved Fluorescence-Resonance-Energy-Transfer) assay
# condition description: inhibition constant for binding to Bcl-2 protein
readout type: Ki

Recorded Ki, per entry:
Can you share its Ki? I mean this compound: `CC1(C)CCC(CN2CCN(c3ccc(C(=O)NS(=O)(=O)c4ccc(NCC5CCN(C6COC6)CC5)c([N+](=O)[O-])c4)c(Oc4cnc5[nH]ccc5c4)c3)CC2)=C(c2ccc(Cl)cc2)C1`
< 0.01 nM

Let us now turn to `CC1(C)CCC(CN2CCN(c3ccc(C(=O)NS(=O)(=O)c4ccc(NC5CCS(=O)(=O)CC5)c([N+](=O)[O-])c4)c(Oc4cnc5[nH]ccc5c4)c3)CC2)=C(c2ccc(Cl)cc2)C1`
< 0.01 nM

# next compound below
Tell me the measured Ki of `O=C(NS(=O)(=O)c1ccc(OCC2(F)CCOCC2)c([N+](=O)[O-])c1)c1ccc(N2CCN(CC3=C(c4ccc(Cl)cc4)CCC4(CCCC4)C3)CC2)cc1Oc1cnc2[nH]ccc2c1` , please.
< 0.01 nM

---

Would you kindly list chromatographic logD for each of these molecules?
# assay summary: log D at pH 7.4 by an HPLC method
# Format: physicochemical
Give bare numbers.

Below, each entry is followed by its recorded chromatographic logD result.
Data request, read-out chromatographic logD, for CC1(C)CCC(CN2CCN(c3ccc(C(=O)NS(=O)(=O)c4ccc(OCC5(F)CCOCC5)c(Cl)c4)c(Oc4cnc5[nH]ccc5c4)c3)CC2)=C(c2ccc(Cl)cc2)C1 [Compound 286]
5.66

Ok, now CC1(C)CCC(CN2CCN(c3ccc(C(=O)NS(=O)(=O)c4ccc(NCC5CCC(F)(F)CC5)c([N+](=O)[O-])c4)c(Oc4cnc5[nH]ccc5c4)c3)CC2)=C(c2ccc(Cl)cc2)C1 [Compound 239]
5.92

Cool, now CC1(C)CCC(CN2CCN(c3ccc(C(=O)NS(=O)(=O)c4ccc(NC5CCN(C6CCOCC6)CC5)c([N+](=O)[O-])c4)c(Oc4ccc5[nH]ccc5c4)c3)CC2)=C(c2ccc(Cl)cc2)C1 [Compound 89]
6.21

Each molecule below has a recorded value; state its chromatographic logD.
1. CC1(C)CCC(CN2CCN(c3ccc(C(=O)NS(=O)(=O)c4cnc(OCC5(F)CCOCC5)c(C(F)(F)F)c4)c(Oc4cnc5[nH]ccc5c4)c3)CC2)=C(c2ccc(Cl)cc2)C1 [Compound 208]
2. O=C(NS(=O)(=O)c1ccc(NCC2CCOCC2)c([N+](=O)[O-])c1)c1ccc(N2CCN(Cc3ccccc3-c3ccc(Cl)cc3)CC2)cc1Oc1ccc2[nH]ccc2c1 [Compound 87]
3. CC1(C)CCC(CN2CCN(c3ccc(C(=O)NS(=O)(=O)c4ccc(NCC5CCOCC5)c([N+](=O)[O-])c4)c(Oc4cnc5[nH]ccc5c4)c3)CC2)=C(c2ccc(Cl)cc2)C1 [Compound 5]

1: 5.57; 2: 5.86; 3: 5.37

List reported chromatographic logD for each of these molecules:
1. CC1(C)CCC(CN2CCN(c3ccc(C(=O)NS(=O)(=O)c4ccc(NC[C@H]5CC[C@H](C#N)CC5)c([N+](=O)[O-])c4)c(Oc4cnc5[nH]ccc5c4)c3)CC2)=C(c2ccc(Cl)cc2)C1 [Compound 276]
2. CC1(C)CCC(CN2CCN(c3ccc(C(=O)NS(=O)(=O)c4ccc(NCCCN(C5CC5)C5COC5)c([N+](=O)[O-])c4)c(Oc4cnc5[nH]ccc5c4)c3)CC2)=C(c2ccc(Cl)cc2)C1 [Compound 311]
3. CN1CCN(Nc2ccc(S(=O)(=O)NC(=O)c3ccc(N4CCN(CC5=C(c6ccc(Cl)cc6)CC(C)(C)CC5)CC4)cc3Oc3ccc4[nH]ccc4c3)cc2[N+](=O)[O-])CC1 [Compound 91]
4. COCCNc1ccc(S(=O)(=O)NC(=O)c2ccc(N3CCN(CC4=C(c5ccc(Cl)cc5)CC(C)(C)CC4)CC3)cc2Oc2ccc3[nH]ccc3c2)cc1[N+](=O)[O-] [Compound 20]

1: 5.59; 2: 5.6; 3: 6.59; 4: 6.24
